system: A549; test: NCI tumour cell line growth inhibition, 48 h
Active and inactive are the calls of the source. Rule as the data show it: active = GI50 up to about 1.1 µM and inactive = higher.
# valid calls are yes (active), no (inactive); nothing else

INSERT INTO results (molecule, class_assignment) VALUES
  ('Cc1c2cccc-2ccc2c1[nH]c1ccc(Br)cc12', 'no'),
  ('CC(=O)OC1(C#N)CC2OC1C1C2N1C(=O)c1ccccc1 (stereo not given)', 'no'),
  ('Cc1ccsc1C(=S)Nc1ccc(Cl)c(/C=N/OC(C)C)c1', 'no'),
  ('CCNC(=S)NNC(=O)CSc1nc2ccc(I)cc2c(=O)n1Cc1ccccc1', 'no');

Query: Outcome? `COc1cc2c(/C=C3/C(=O)Nc4ccccc43)c(Cl)[nH]c2cc1C`
Response: yes

Query: Outcome? `O=P1(c2ccccc2)C(c2ccccc2)=CC=C1c1ccccc1`
Response: no

Query: Outcome? `O=C(/C=C\Nc1ccccc1O)C(F)(F)F`
Response: no

Query: Outcome? CCOC(=O)C(C(=O)COC(C)(C)C)[C@@H]1C=C[C@H](OC(C)=O)C1 (stereo not given in full)
Response: no

Query: Outcome? COc1ccc(-c2nc(N)c3ncn(C4OC(CO)C(O)C4O)c3n2)cc1 (stereo not given)
Response: no

Query: Outcome? `CN(C)CCC(CCN(C)C)=NOC(=O)c1ccccc1`
Response: no

Query: Outcome? `CC[C@H](NC1=C(Cl)C(=O)c2c(O)ccc(O)c2C1=O)C(=O)OC`
Response: no
